biological target: CD44v6 on cultured cancer cells (BHT-101, ACT-1, A431) (human) (UniProt P16070); assay: live BHT-101 cells; apparent KD
pKd: −log10 of the molar value.
observedProperty: pKd

Worked examples, 2 binders total:
AL-MN114-460 hIgG4 (antibody, V domains shown) VH: EVQLLESGGGLVQPGGSLRLSCAASGFSFGSYAMSWVRQAPGKGLEWVSAISAGGSSTYYADSVKGRFTISRDNSKNTLYLQMNSLRAEDTAVYYCARHYYSDSDYRSSAAMDYWGQGTLVTVSS VL: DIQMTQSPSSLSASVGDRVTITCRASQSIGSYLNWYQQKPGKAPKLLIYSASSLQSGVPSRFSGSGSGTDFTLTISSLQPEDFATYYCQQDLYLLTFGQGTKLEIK :: > 9.70
AL-MN114-444 hIgG4 (antibody, V domains shown) VH: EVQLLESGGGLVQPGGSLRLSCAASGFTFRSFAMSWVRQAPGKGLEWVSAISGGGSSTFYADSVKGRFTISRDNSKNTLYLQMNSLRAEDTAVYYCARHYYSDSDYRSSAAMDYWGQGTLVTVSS VL: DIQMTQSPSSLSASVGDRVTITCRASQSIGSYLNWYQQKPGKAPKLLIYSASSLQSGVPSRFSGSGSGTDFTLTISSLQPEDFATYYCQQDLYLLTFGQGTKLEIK :: > 9.70

Now for another entry.
Given the binder AL-MN114-435 hIgG4 (antibody, V domains shown) VH: EVQLLESGGGLVQPGGSLRLSCAASGFTFSSYAMSWVRQAPGKGLEWVSAISAGGSSTFYADSVKGRFTISRDNSKNTLYLQMNSLRAEDTAVYYCARHYYSDSDYRSSAAMDYWGQGTLVTVSS VL: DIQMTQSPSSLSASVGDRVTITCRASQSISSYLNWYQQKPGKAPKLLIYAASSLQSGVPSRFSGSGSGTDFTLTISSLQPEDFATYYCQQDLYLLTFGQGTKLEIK , write its reported pKd.
> 9.70
